Protocol: AUC (0-t) in female Beagle dog at 2 mg/kg,iv measured upto 24 hrs
Type: ADME, organism-based, Canis lupus familiaris
Design: dose 2 mg/kg, time < 24 hrs, route iv
Conditions Used: in vivo
Measured Property: AUC(0-t) at 24 h (ng·h/mL)

{"columns": ["Structure Smiles", "Measured Property", "Units", "Reported Result"],
 "data": [
  ["CC(=O)O[C@@]12CO[C@@H]1C[C@H](O)[C@@]1(C)C(=O)[C@H](O)C3=C(C)[C@@H](OC(=O)[C@H](OC(=O)CCC(=O)NCCCC[C@H](NC(=O)CC[C@@H](NC(=O)[C@H](C)NC(=O)/C=C/c4ccc(F)cc4Cl)C(N)=O)C(=O)O)[C@@H](NC(=O)OC(C)(C)C)c4ccccc4)C[C@@](O)([C@@H](OC(=O)c4ccccc4)[C@H]21)C3(C)C", "AUC(0-t) at 24 h", "ng·h/mL", 6970]
]}

###

Protocol: MRT (0 to infinity) in male rat at 4 mg/kg,iv measured upto 24 hrs
Assay type: ADME, organism-based
Conditions Used: in vivo

{"columns": ["Structure Smiles", "MRT inf (min)"],
 "data": [
  ["CC(=O)O[C@@]12CO[C@@H]1C[C@H](O)[C@@]1(C)C(=O)[C@H](O)C3=C(C)[C@@H](OC(=O)[C@H](OC(=O)CCC(=O)NCCCC[C@H](NC(=O)CC[C@@H](NC(=O)[C@H](C)NC(=O)/C=C/c4ccc(F)cc4Cl)C(N)=O)C(=O)O)[C@@H](NC(=O)OC(C)(C)C)c4ccccc4)C[C@@](O)([C@@H](OC(=O)c4ccccc4)[C@H]21)C3(C)C", 22.5]
]}

###

Protocol: AUC (0-t) in mouse tumor implanted with mouse 4T1 cells at 10 mg/kg,iv measured upto 72 hrs
Assay type: ADME, organism-based, Neoplasm
Set-up: time < 72 hrs, dose 10 mg/kg, route iv
Measured Property: AUC(0-t) at 72 h (µM·h)

{"columns": ["Structure Smiles", "Measured Property", "Reported Result"],
 "data": [
  ["CC(=O)O[C@@]12CO[C@@H]1C[C@H](O)[C@@]1(C)C(=O)[C@H](O)C3=C(C)[C@@H](OC(=O)[C@H](OC(=O)CCC(=O)NCCCC[C@H](NC(=O)CC[C@@H](NC(=O)[C@H](C)NC(=O)/C=C/c4ccc(F)cc4Cl)C(N)=O)C(=O)O)[C@@H](NC(=O)OC(C)(C)C)c4ccccc4)C[C@@](O)([C@@H](OC(=O)c4ccccc4)[C@H]21)C3(C)C", "AUC(0-t) at 72 h", 0.11]
]}

###

Protocol: AUC (0-infinity) in male Beagle dog at 1 mg/kg,iv measured upto 24 hrs
Format: ADME, organism-based, Canis lupus familiaris
Set-up: dose 1 mg/kg, time < 24 hrs, route iv
Conditions Used: in vivo
Measured Property: AUC(0-inf) (ng·h/mL)

{"columns": ["Structure Smiles", "Measured Property", "Reported Result"],
 "data": [
  ["CC(=O)O[C@@]12CO[C@@H]1C[C@H](O)[C@@]1(C)C(=O)[C@H](O)C3=C(C)[C@@H](OC(=O)[C@H](OC(=O)CCC(=O)NCCCC[C@H](NC(=O)CC[C@@H](NC(=O)[C@H](C)NC(=O)/C=C/c4ccc(F)cc4Cl)C(N)=O)C(=O)O)[C@@H](NC(=O)OC(C)(C)C)c4ccccc4)C[C@@](O)([C@@H](OC(=O)c4ccccc4)[C@H]21)C3(C)C", "AUC(0-inf)", 1630]
]}
